- TESTED TARGET: UniProtKB P27487
- Sequence (P27487 whole entry, species assumed): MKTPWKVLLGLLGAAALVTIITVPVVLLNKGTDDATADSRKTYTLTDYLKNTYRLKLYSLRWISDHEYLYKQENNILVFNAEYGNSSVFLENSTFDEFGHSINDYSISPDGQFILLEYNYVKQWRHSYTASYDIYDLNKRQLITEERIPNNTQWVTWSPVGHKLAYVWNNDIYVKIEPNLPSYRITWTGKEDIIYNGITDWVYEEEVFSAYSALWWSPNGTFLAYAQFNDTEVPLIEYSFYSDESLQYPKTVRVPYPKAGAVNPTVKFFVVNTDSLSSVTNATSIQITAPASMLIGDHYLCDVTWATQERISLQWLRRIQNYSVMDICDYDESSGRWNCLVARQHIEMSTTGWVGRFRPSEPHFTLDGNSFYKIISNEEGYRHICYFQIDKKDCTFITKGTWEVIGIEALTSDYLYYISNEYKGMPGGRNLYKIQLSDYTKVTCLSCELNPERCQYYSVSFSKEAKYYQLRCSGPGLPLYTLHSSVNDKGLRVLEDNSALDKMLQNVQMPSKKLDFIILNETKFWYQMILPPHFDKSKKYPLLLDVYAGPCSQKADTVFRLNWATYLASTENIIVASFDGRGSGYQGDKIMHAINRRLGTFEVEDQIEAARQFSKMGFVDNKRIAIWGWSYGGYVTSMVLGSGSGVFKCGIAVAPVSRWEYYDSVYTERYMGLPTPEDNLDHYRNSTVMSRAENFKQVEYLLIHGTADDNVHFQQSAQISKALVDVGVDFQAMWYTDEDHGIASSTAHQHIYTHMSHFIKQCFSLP
- PROTOCOL SUMMARY: Stability against DPP IV enzyme
- Assay type: in vitro ADME
- CONDITION INFO: 2 μM, 37° C., 24 h
Where a SMILES comes first, the peptide text is derived from it. [ ]: non-standard residue; d: D form. ξ: configuration not given here. ξαMeBip(2'-Et,4'-OMe) = CCc1cc(OC)ccc1-c1ccc(CC(C)(N)C(=O)O)cc1; ξBip(2'-Et-4'-OMe) = CCc1cc(OC)ccc1-c1ccc(CC(N)C(=O)O)cc1; ξαMePhe(2,6-F2) = CC(N)(Cc1c(F)cccc1F)C(=O)O; ξαMe(hhPhe) = CC(N)(CCCc1ccccc1)C(=O)O; ξαMePhe(2-F) = CC(N)(Cc1ccccc1F)C(=O)O; ξhhPhe = NC(CCCc1ccccc1)C(=O)O; ξαMeD = CC(N)(CC(=O)O)C(=O)O; ξαMeS = CC(N)(CO)C(=O)O; Aib = CC(C)(N)C(=O)O
Rule: % degradation in 24 h when incubated with DPP-IV enzyme of 70% or more gives Criterion met; anything lower gives Criterion not met.

A selection of reference data follows.
1) CCc1cc(OC)ccc1-c1ccc(CC(C)(NC(=O)[C@H](CC(=O)O)NC(=O)C(C)(CO)NC(=O)[C@@H](NC(=O)[C@H](Cc2ccccc2)NC(=O)[C@@H](NC(=O)CNC(=O)[C@H](CCC(=O)O)NC(=O)[C@H](C)NC(=O)[C@H](Cc2c[nH]cn2)NC(=O)[C@@H](N)C(C)C)[C@@H](C)O)[C@@H](C)O)C(=O)NC(CCCc2ccccc2)C(N)=O)cc1 (stereo partly drawn) [compound 38] (H-VHAEGTFT[ξαMeS]D[ξαMeBip(2'-Et,4'-OMe)][ξhhPhe]-NH2)	Criterion not met
2) CCc1cc(OC)ccc1-c1ccc(CC(C)(NC(=O)C(C)(CC(=O)O)NC(=O)[C@H](CO)NC(=O)[C@@H](NC(=O)C(C)(Cc2c(F)cccc2F)NC(=O)[C@@H](NC(=O)CNC(=O)[C@H](CCC(=O)O)NC(=O)[C@H](CO)NC(=O)[C@H](Cc2c[nH]cn2)NC(=O)[C@@H](N)C(C)C)[C@@H](C)O)[C@@H](C)O)C(=O)NC(C)(CCCc2ccccc2)C(N)=O)cc1 (stereo partly drawn) [compound 201] (H-VHSEGT[ξαMePhe(2,6-F2)]TS[ξαMeD][ξαMeBip(2'-Et,4'-OMe)][ξαMe(hhPhe)]-NH2)	Criterion met
3) CCc1cc(OC)ccc1-c1ccc(CC(C)(NC(=O)[C@H](CC(=O)O)NC(=O)[C@H](CO)NC(=O)[C@@H](NC(=O)[C@H](Cc2ccccc2)NC(=O)[C@@H](NC(=O)CNC(=O)[C@H](CCC(N)=O)NC(=O)[C@H](CO)NC(=O)[C@H](Cc2c[nH]cn2)NC(=O)[C@@H](NC(=O)[C@@H](N)C(C)C)C(C)C)[C@@H](C)O)[C@@H](C)O)C(=O)NC(CCCc2ccccc2)C(N)=O)cc1 (stereo partly drawn) [compound 205] (H-VVHSQGTFTSD[ξαMeBip(2'-Et,4'-OMe)][ξhhPhe]-NH2)	Criterion not met

[Q] Check if % degradation in 24 h when incubated with DPP-IV enzyme >= 70% (inclusive). Item: CCc1cc(OC)ccc1-c1ccc(CC(C)(NC(=O)C(C)(CC(=O)O)NC(=O)[C@H](CO)NC(=O)[C@@H](NC(=O)C(C)(Cc2c(F)cccc2F)NC(=O)[C@@H](NC(=O)CNC(=O)[C@H](CCC(N)=O)NC(=O)C(C)(C)NC(=O)[C@H](Cc2c[nH]cn2)NC(=O)[C@@H](N)C(C)C)[C@@H](C)O)[C@@H](C)O)C(=O)NC(CCCc2ccccc2)C(N)=O)cc1 (stereo partly drawn) [compound 75] (H-VH[Aib]QGT[ξαMePhe(2,6-F2)]TS[ξαMeD][ξαMeBip(2'-Et,4'-OMe)][ξhhPhe]-NH2)
[A] Criterion met

[Q] Check if % degradation in 24 h when incubated with DPP-IV enzyme >= 70% (inclusive). Item: CCc1cc(OC)ccc1-c1ccc(CC(C)(NC(=O)[C@H](CC(=O)O)NC(=O)C(C)(CO)NC(=O)[C@@H](NC(=O)C(C)(Cc2ccccc2F)NC(=O)[C@@H](NC(=O)CNC(=O)[C@H](CCC(=O)O)NC(=O)[C@H](C)NC(=O)[C@H](Cc2c[nH]cn2)NC(=O)[C@@H](N)C(C)C)[C@@H](C)O)[C@@H](C)O)C(=O)NC(C)(CCCc2ccccc2)C(N)=O)cc1 (stereo partly drawn) [compound 170] (H-VHAEGT[ξαMePhe(2-F)]T[ξαMeS]D[ξαMeBip(2'-Et,4'-OMe)][ξαMe(hhPhe)]-NH2)
[A] Criterion not met

[Q] Check if % degradation in 24 h when incubated with DPP-IV enzyme >= 70% (inclusive). Item: CCc1cc(OC)ccc1-c1ccc(CC(NC(=O)C(C)(CC(=O)O)NC(=O)C(C)(CO)NC(=O)[C@@H](NC(=O)[C@H](Cc2ccccc2)NC(=O)[C@@H](NC(=O)CNC(=O)[C@H](CCC(N)=O)NC(=O)[C@H](C)NC(=O)[C@H](Cc2c[nH]cn2)NC(=O)[C@@H](N)C(C)C)[C@@H](C)O)[C@@H](C)O)C(=O)NC(C)(CCCc2ccccc2)C(N)=O)cc1 (stereo partly drawn) [compound 108] (H-VHAQGTFT[ξαMeS][ξαMeD][ξBip(2'-Et-4'-OMe)][ξαMe(hhPhe)]-NH2)
[A] Criterion not met

[Q] Check if % degradation in 24 h when incubated with DPP-IV enzyme >= 70% (inclusive). Item: CCc1cc(OC)ccc1-c1ccc(CC(C)(NC(=O)C(C)(CC(=O)O)NC(=O)[C@H](CO)NC(=O)[C@@H](NC(=O)C(C)(Cc2ccccc2F)NC(=O)[C@@H](NC(=O)CNC(=O)[C@H](CCC(=O)O)NC(=O)[C@H](CO)NC(=O)[C@H](Cc2c[nH]cn2)NC(=O)[C@@H](N)C(C)C)[C@@H](C)O)[C@@H](C)O)C(=O)NC(CCCc2ccccc2)C(N)=O)cc1 (stereo partly drawn) [compound 69] (H-VHSEGT[ξαMePhe(2-F)]TS[ξαMeD][ξαMeBip(2'-Et,4'-OMe)][ξhhPhe]-NH2)
[A] Criterion met
